molecular target: ZFP SBS#1140 (synthetic); assay: EMSA; details: tags: MBP fusion
Sequence (chain, as listed by the source): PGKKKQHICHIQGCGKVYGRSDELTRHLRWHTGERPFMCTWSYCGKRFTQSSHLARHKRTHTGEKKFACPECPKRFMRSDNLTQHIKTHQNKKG
PARAMETER: Kd

Fill in the blank: the reported Kd of AAGGGTGCG (dsDNA) DNA 1: AAGGGTGCG DNA 2: CGCACCCTT is ____.
0.3 nM
